| MOLECULE | melting point |
| --- | --- |
| CCCCCCCCCCCCCCCCNC(=O)NCCCN(C)C | 78 to 79 °C |
| Cn1c(=O)c(-c2ccc(Cl)cc2Cl)cc2c3cc(-c4csc(COC(=O)C(C)(C)C)n4)ccc3n(C)c21 | 193 to 195 °C |
| CSc1nc(-c2nnn(C)n2)c(I)c(C(F)(F)F)n1 | 113 to 118 °C |
| O=C(O)c1cccc(CSCCNC(=O)c2c(Cl)cccc2Cl)c1 | 165 to 166 °C |
| O=C(c1ccc(F)cc1)c1c(OCc2ccccc2)c(=O)ccn1CCO | 182 to 183 °C |
| CON=Cc1c(S(N)(=O)=O)ccn1C | 120 to 122 °C |
| CCOC(=O)Oc1ccc(N)c(C(=O)O)c1 | 157 to 158 °C |
| O=C(O)COc1ccc(C(=O)c2ccccc2F)c(Cl)c1Cl | 153 to 156 °C |
| CN(C)c1ccc(N=Nc2nc3ccccc3s2)cc1 | 243 to 246 °C |
| Nc1ccccc1CNC(=O)C1Cc2ccccc2N1S(=O)(=O)c1ccc(-c2ccc(F)cc2F)cc1 (stereo unspecified) | 93 to 96 °C |
| O=C(O)Cc1c(C(=O)C2CCC2)[nH]c2cc(Cl)ccc12 | 225 to 228 °C |
| CCCCCCN1CCN(Cc2ccc(NC(=S)Nc3ccccc3N)cc2)C(=O)C1=O | 160 °C |
| CN(C1c2cc(OCc3ccccc3)ccc2OC(C)(C)C1O)S(C)(=O)=O (stereo unspecified) | 162 to 164 °C |
| CC(=O)OC(C(=O)N(C)c1ccc(N(C)C(=O)C(OC(C)=O)c2ccccc2)cc1)c1ccccc1 (stereo unspecified) | 180 to 183 °C |
| COc1ccc2c(c1)c(Br)cn2C(=O)OC(C)(C)C | 111 to 112 °C |
| N#CCc1c(Cl)nc(-c2ccc([N+](=O)[O-])cc2)n1Cc1ccccc1 | 125 to 128 °C |
| Nc1ccc(-c2nnn(-c3ccc(C(F)(F)F)cc3F)c2N)cc1 | 164 to 165 °C |
| CN(C)CCNC(=S)SC(C)(C)[C@H](NC(=O)c1ccc(Cl)cc1)C(=O)O | 142 to 143 °C |
| COc1ccccc1-c1ccn2ncc(Br)c2n1 | 125 to 128 °C |
| CCOC(=O)c1cn(-c2cnsn2)c2c(F)c(F)c(F)cc2c1=O | 167 to 169 °C |
| [N-]=[N+]=NC1CCc2ccccc2NC1=O (stereo unspecified) | 142 to 145 °C |

----------
Known melting point of a selection of compounds
QUANTITY NAME: melting point

| MOLECULE SMILES | QUANTITY NAME | OBS VALUE |
| --- | --- | --- |
| CC(C)Oc1cc(Oc2ccc(C(F)(F)F)cn2)ccc1CCCOc1cc(CCC(=O)O)n(-c2ccccc2)n1 | melting point | 130 °C |
| Cc1ccc(C=C2CCc3c2oc2ccc(C(=O)O)cc2c3=O)c(C)c1 | melting point | 329 to 331 °C |
| CCCOc1cccc(C=C(C=O)C(C=O)=Cc2cccc(OCCC)c2)c1 | melting point | 93 to 94 °C |
| Cc1csc2c(Br)c(C=O)sc12 | melting point | 127 to 129 °C |
| Nc1ccc(S(=O)(=O)c2cc(-c3ccc(Cl)cc3)nc(N3CCCC3)c2)cc1 | melting point | 236 to 237 °C |

----------
Known melting point of a selection of molecules

| MOLECULE | melting point |
| --- | --- |
| CCCCCCCCCCCCCCCCCC(=O)Oc1cccc(C(=O)OCC)c1 | 57 °C |
| CCC12CCC(=O)C=C1c1c(cc(OCC(=O)O)c(Cl)c1Cl)C2C (stereo not given) | 212 to 214 °C |
| C/C(=C(\C#N)C(=S)/N=C/N(C)C)N1CCCN(c2ccc(F)c(C)c2)CC1 | 148 to 150 °C |
| Cc1nc2sc([N+](=O)[O-])cc2c(=O)n1-c1ccc([N+](=O)[O-])cc1Cl | 166 to 168 °C |
| O=c1c(NCCCBr)c(OC2CCCCC2)c1=O | 68 to 70 °C |

----------
Known melting point of a selection of compounds
QUANTITY NAME: melting point

| COMPOUND | OBS VALUE |
| --- | --- |
| COc1cc(OC)c(-c2cc3ccccc3n2C)cc1C=CC(=O)c1ccc(S(=O)(=O)NCc2cccnc2)cc1 | 202 to 203 °C |
| CCc1nc2c(OCc3ccc(OC)cc3)cccc2[nH]1 | 73.8 to 77.9 °C |
| CCCC(=O)c1cc(C(=O)C(=O)OC(=O)C(=O)c2cc(C(=O)CCC)c(C)cc2N)c(N)cc1C | 224 to 226 °C |
| COc1ccccc1NC(=O)Nc1nc(O)ncc1F | 247 to 250 °C |
| CCC(CC)Oc1cc(C)nc2c1COCN2c1c(C)cc(Br)cc1C | 206 to 209 °C |
| CCn1ccc(-c2sc(NC(=O)c3ccncc3)nc2-c2ccco2)cc1=O | 245 to 248 °C |
| CC(Cc1nc(-c2ccccc2)nc2ccccc12)C(=O)O (stereo not given) | 180 °C |
| CCCN(CCC)CCCOc1ccc(S(=O)(=O)c2c(C)cn3ccccc23)cc1 | 107 to 108 °C |
| OCC1C=CC(n2cnc3c(Cl)ncnc32)C1 (stereo not given) | 121 to 124 °C |
| C[C@@H]1CNCCN1C(=O)OC(C)(C)C | 33 to 36 °C |
| COc1cc(COc2nn(-c3ccccc3)cc2/C=C/CO)ccc1OCc1nc(-c2ccco2)oc1C | 120 to 121 °C |
| CCCN1Cc2ccccc2C(=O)c2cc(CC(=O)O)ccc21 | 126 °C |
| Nc1cc(C(=O)NNC(=O)c2occ(-c3ccccc3)c2-c2ccccc2)ccc1O | 268 to 270 °C |
| CC(=O)SC(C(=O)c1ccccc1)C(C)C(=O)N1C(c2cccc(C(F)(F)F)c2)SC[C@H]1C(=O)O (stereo not given in full) | 152 to 154 °C |
| O=c1oc2ccccc2c2c1-c1ccccc1OC2 | 202 °C |
| Cc1ccc(Sc2nc(Cl)cc(OCCC(C)C)n2)cc1 | 83 to 86 °C |
| COc1ccccc1C(c1cccc2ccccc12)C(C)(C#N)C#N (stereo not given) | 175 to 177 °C |
| OC1CCc2ccc(Oc3c(F)cc(C(F)(F)F)cc3Cl)cc21 (racemic) | 101 to 102 °C |
| COc1ccc(CCCOc2c(C)cc(-c3noc(C(F)(F)F)n3)cc2C)cn1 | 62 to 64 °C |
| COC(=O)c1cnc(Cl)o1 | 35 to 50 °C |

----------
QUANTITY NAME: melting point

| MOLECULE | OBS VALUE |
| --- | --- |
| O=[N+]([O-])c1cc([N+](=O)[O-])c(Nc2ccc3ccccc3c2[N+](=O)[O-])c(C(F)(F)F)c1 | 213 to 215 °C |
| COc1cc(COc2cc(N)c(Cl)cc2C(=O)CCCCN2CCCCC2)cc(OC)c1 | 128 to 130 °C |
| CCCCCCCCCCCCCCCCCCNC(=O)OCC(CNS(=O)(=O)CCCCl)NC(=O)OC (centres undefined) | 99 to 101 °C |
| CCS(=O)(=O)N(c1cc([N+](=O)[O-])c(F)cc1Br)S(=O)(=O)CC | 144 to 146 °C |
| Cc1c(CO)nc2c(OCc3ccccc3)cccn12 | 172 to 175 °C |
| Cc1c(S(C)=O)c(C=NO)nn1-c1c(Cl)cc(C(F)(F)F)cc1Cl (centres undefined) | 210 to 214 °C |
| CC(C)(C)NC(=O)c1nn(-c2ccc(Cl)cc2)c2c1[C@@H]1CC[C@H]2C1 | 159 to 162 °C |
| Nc1nc(=O)n(C(=O)Nc2cccc(Cl)c2)cc1F | 250 to 252 °C |
| COC(=O)c1ccc(Nc2nccc(-c3ccncc3)n2)cc1 | 194 to 196 °C |

----------
Known melting point of a selection of molecules

| MOLECULE | melting point |
| --- | --- |
| CS(=O)c1ccc(C2=C(c3ccccc3)C(=O)C(C)(C)O2)c(F)c1 (configuration not stated) | 149 to 150 °C |
| Cc1ccn2c(C)c(CCc3ccc4nc(N)oc4c3)nc2c1 | 244 to 246 °C |
| COc1nc(C(F)(F)C(F)(F)F)cc(=O)n1-c1cc(O)c(Cl)cc1F | 143 to 145 °C |
| OCC1OC(n2cnc3c(Nc4ccccc4)ncnc32)CC1F (configuration not stated) | 83 °C |
| Cn1c([N+](=O)[O-])cnc1-c1cc(C(N)=O)on1 | 235 to 238 °C |
| Cc1csc2ncc(C(O)CC(C)c3ccccc3)n12 (configuration not stated) | 135 to 136 °C |
| O=C(c1ccccc1)N1CCC2OC2C1 (configuration not stated) | 212 to 213 °C |
| C[C@H](N)C(=O)N(C(=O)OCc1ccccc1)c1ccccc1 | 161 to 163 °C |
| C=CCc1cc(C=C2N=C(C)OC2=O)ccc1OC(C)=O | 108 to 109 °C |
| CN(C)NC(=O)c1c([Si](C)(C)C)ccc(Cl)c1Cl | 144 to 145 °C |
| COCc1c(S(C)(=O)=O)ccc(C(=O)O)c1C | 129 to 131 °C |
| CCN(C(=O)OC(C)(C)C)C1CC=C(c2c[nH]c3cc(NC(=N)c4cccs4)ccc23)CC1 (configuration not stated) | 110 to 112 °C |
| CC(C)=CCOc1ccc(C(=O)C=Cc2ccco2)c(O)c1 | 75 to 77 °C |
| Cc1cc(O)ccc1-n1cc(C(=O)O)c(=O)cc1C=NN1CCOCC1 | 267 to 268 °C |
| Oc1cc2ccccc2nc1O | 261 to 262 °C |
| CC(C)(C)OC(=O)c1ccc2cncn2c1 | 77 °C |
| CN1CCC(=C2c3ccc(Cl)cc3CCn3ccnc32)CC1 | 187 °C |
| CCOC(=O)C(C)(Cc1ccc(OCCN2CCCCC2)cc1)S(=O)(=O)c1ccc(OC)cc1 (configuration not stated) | 106 °C |
| Cc1cc2cccc(-c3ccc(Cl)cc3Cl)n2n1 | 86.9 to 90 °C |
| COc1ccc(-c2nc3cc(Cl)cc(C#CCN(O)C(=O)OC(C)(C)C)c3o2)cc1OC1CCCC1 | 157 to 161 °C |
| CN1CCc2c(sc3c2C(=O)N(CCCl)CN3)C1 | 159 to 161 °C |
| COc1ccc(CC(=O)Nc2cccc(/C=C/c3nc(C4CCC4)cs3)c2)c(C(=O)O)c1 | 190 to 191 °C |
